From: patent US20240391954A1

Recorded MC4R selectivity vs MC1R by entry
# study system: human MC4R receptor (human, UniProt P32245 1-332)
# Sequence (P32245 whole entry): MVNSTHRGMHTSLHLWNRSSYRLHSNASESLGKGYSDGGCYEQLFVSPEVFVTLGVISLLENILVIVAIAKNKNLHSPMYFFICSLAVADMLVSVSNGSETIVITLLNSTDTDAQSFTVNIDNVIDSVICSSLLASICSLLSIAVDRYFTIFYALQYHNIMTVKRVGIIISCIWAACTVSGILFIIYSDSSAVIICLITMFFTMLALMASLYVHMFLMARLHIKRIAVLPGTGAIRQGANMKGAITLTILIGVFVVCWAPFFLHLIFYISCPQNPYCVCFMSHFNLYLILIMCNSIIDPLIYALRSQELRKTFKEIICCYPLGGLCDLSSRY
# assay comment: cell-based or functional assay
Positions of bridges follow the written chain, without caps; N, C: chain ends. Non-standard residues stand in square brackets, D forms with d. Cit = NC(=O)NCCC[C@H](N)C(=O)O; Aib = CC(C)(N)C(=O)O

| binder | MC4R selectivity vs MC1R |
| --- | --- |
| {CH2CO}-[dA]H[dF]RWC-NH2 (thioether N-6; SMILES C[C@H]1NC(=O)CSC[C@@H](C(N)=O)NC(=O)[C@H](Cc2c[nH]c3ccccc23)NC(=O)[C@H](CCCNC(=N)N)NC(=O)[C@@H](Cc2ccccc2)NC(=O)[C@H](Cc2c[nH]cn2)NC1=O) [CTX-1202] | 0.89 |
| Ac-RC[Aib][Cit][dF]RWC-NH2 (disulfide 2-8) [CTX-1289] | 130 |
